# assay_remarks: MTT cell viability, Hek-293
# measurement_conditions: human, Hek-293 cells
readout_type: IC50 at 24 h (µM)

CC1(C)C2CC=C(CCNC(=O)c3ccc(/C=C/C(=O)NO)cc3)[C@@H]1C2 [21c]: 33.9
CC(/C=C/C(=O)NO)=C\[C@@H](C)C(=O)c1ccc(N(C)C)cc1 [Trichostatin A, reference compound]: 0.22
CC1(C)C2CC=C(CNC(=O)/C=C/c3ccc(C(=O)NO)cc3)[C@H]1C2 [18b]: 38.9
CC1(C)C2CC=C(CCNC(=O)/C=C/c3ccc(C(=O)NO)cc3)[C@@H]1C2 [18c]: 34
CC1(C)C2CC=C(CNC(=O)/C=C/c3ccc(C(=O)NO)cc3)[C@@H]1C2 [18a]: 46.7
